System: A498
assay explanation: Growth inhibition of human A498 cells at 10^-5 M after 48 hrs by SRB assay
Format: functional
conditions: A498, 48 h, read-out: GI
Rule: inhibition of growth at 10 µM of 30% or more gives rule met; anything lower gives rule not met.

Solved cases (3 shown):
COC(=O)c1c2c(O)nnc(-c3ccc(OC)cc3)c2n2cc(C)cc(C)c12	rule met
COc1cc(C(=O)c2cc(C#N)c3cc(C#N)ccn23)cc(OC)c1OC	rule not met
COC(=O)c1c(C(=O)OC)c2cc(C)ccn2c1C(=O)c1cc(OC)c(OC)c(OC)c1	rule not met

# input Evaluate "COC(=O)c1c(C(=O)OC)c2cc(N(C)C)ccn2c1C(=O)c1cc(OC)c(OC)c(OC)c1" : inhibition of growth at 10 µM at minimum 30%?
# output rule not met

# input Evaluate "COC(=O)c1c(C(=O)OC)c2cc(N(C)C)ccn2c1C(=O)c1ccc(OC)c(OC)c1" : inhibition of growth at 10 µM at minimum 30%?
# output rule not met

# input Evaluate "CCOC(=O)c1cc(C(=O)c2cc(OC)c(OC)c(OC)c2)n2ccc(N(C)C)cc12" : inhibition of growth at 10 µM at minimum 30%?
# output rule not met
